tested on: NCI/ADR-RES ovarian; assay: NCI-60 one-dose screen, 48 h; details: 10 µM unless noted
This is part of a sample that, as a whole, favours compounds with a hit. Of some 83,000 tested, about 20% had one in any assay. Calls of active or inactive are those of the source. How the source made its calls: active means growth percent below 10; inactive means the rest.
Outcomes: 1.0 = active, 0.0 = inactive

>>> print(df.to_string())
                                    compound  group
 0  O=[N+]([O-])c1ccc(Oc2cccc3c(Oc4ccc([N+](=O)[O-])cc4[N+](=O)[O-])cccc23)c([N+](=O)[O-])c1    0.0
 1    C=CCNc1ccc2c3c(cccc13)C(=O)N(CC=C)C2=O    0.0
 2  C#Cc1c(I)n(C2OC(CO[Si](C)(C)C(C)(C)C)C3OC(C)(C)OC32)c(=O)[nH]c1=O (centres undefined)    0.0
 3  CC1=C([Se]CC(OC(=O)[C@@H](CO)NC(=O)OC(C)(C)C)C(=O)NCCCCCC(=O)OCc2ccccc2)C(=O)c2ccccc2C1=O (some centres undefined)    1.0
 4  CN1CCN(Cn2nc(-c3cc(Cl)cc(Cl)c3Cl)oc2=S)CC1    0.0
 5  CC1(C)CC[C@]2(CO)CC[C@]3(C)[C@H](CC[C@@H]4[C@@]5(C)CC[C@H](O)C(C)(C)[C@@H]5CC[C@]43C)[C@H]2[C@H]1O    0.0
 6  COc1ccc(C(c2cc(OC)c(OC)c(OC)c2)n2cncn2)cc1O (centres undefined)    1.0
 7  c1ccc2cc(Cn3cc[n+](Cc4ccc5ccccc5c4)c3)ccc2c1    0.0
 8  CC1=NN(c2cccc(Cl)c2)C(=O)/C1=C\C=C\c1ccccc1    1.0
 9  O=C(/C=C/C12c3ccccc3C(c3ccccc31)C1C(=O)NC(=O)C12)c1cccs1 (centres undefined)    0.0
10  COC(=O)CCc1c(/C=C2\N=C(c3ccc[nH]3)C=C2OC)[nH]c(C)c1C(=O)OCc1ccccc1    1.0
11  Cn1cc(-c2nc(-c3c[nH]c4c(Cl)nccc34)cs2)c2ccccc21    0.0
12  C#CCOc1cccc(Nc2ncnc3c(NC(=O)CCl)cccc23)c1    0.0
13  CC(C)n1nc(-c2ccc3oc(N)nc3c2)c2c(N)ncnc21    1.0
14  O=C(NC1CCCCCC1)c1ccc2c(=O)n3c(nc2c1)CCCCC3    0.0
15  Cc1ccc2c(c1)CC(O)CC1C(=O)N(CCO)CC(=O)N21 (centres undefined)    0.0
16  C=C1/C(=C\C=C2/CCC[C@]3(C)[C@@H]([C@H](C)CCCC(C)(C)O)CC[C@@H]23)C[C@@H](OC(=O)CBr)C[C@@H]1O    0.0
17             CCCCC1=C(Br)C(=O)c2ncccc2C1=O    0.0
18  CCOC(=O)C1=C(c2ccccc2)N=C2N(c3ccccc3)N=C(C(C)=O)N2C1c1ccc(Br)cc1 (centres undefined)    0.0
